Task for the reader: assign each of the following molecules its reported melting point.
Where a name gives a salt, the structure may show the parent alone.

q: Query (molecule): CC1(C)Cc2nc(Cc3ccc(OC(F)(F)F)cc3)c3[nH]c4ccccc4c3c2C(O)C1 (stereo not drawn) ; field requested: melting point
a: 117 to 119 °C

q: Repeat with CC1(C)Cc2nc(Cc3ccc4c(c3)OCO4)c3[nH]c4ccccc4c3c2C(O)C1 (stereo not drawn) (as salt: HCl)
a: 114 to 119 °C

q: Repeat with `COc1ccc(Cc2nc3c(c4c2[nH]c2ccccc24)CCCC3)cc1F`
a: 118 to 120 °C

q: Repeat with `COc1ccc(Cc2nc3c(c4c2[nH]c2ccccc24)[C@H](O)CC(C)(C)C3)cc1`
a: 118 to 120 °C

q: Repeat with `CC1(C)CC(=O)c2c(nc(Cc3cccc(Cl)c3)c3[nH]c4ccccc4c23)C1`
a: 206 to 209 °C

q: Repeat with `CC1(C)Cc2nc(Cc3cc(F)cc(F)c3)c3[nH]c4ccccc4c3c2[C@@H](O)C1`
a: 130 to 131 °C

q: Repeat with `CC1(C)CC(=O)c2c(nc(Cc3cc(F)cc(Cl)c3)c3[nH]c4ccccc4c23)C1`
a: 219 to 221 °C

q: Repeat with `COc1ccc(Cc2nc3c(c4c2[nH]c2ccccc24)CCC(C)(C)C3)cc1`
a: 158 °C

q: Repeat with `CC1(C)CC(=O)c2c(nc(Cc3cc(F)cc(F)c3)c3[nH]c4ccccc4c23)C1`
a: 204 to 208 °C

q: Repeat with CC1(C)Cc2nc(Cc3cccc([N+](=O)[O-])c3)c3[nH]c4ccccc4c3c2C(O)C1 (stereo not drawn)
a: 228 to 230 °C

q: Repeat with CC1(C)CC(=O)c2c(nc(Cc3ccc([N+](=O)[O-])cc3)c3[nH]c4ccccc4c23)C1 [Example 16]
a: 164 to 166 °C

q: Repeat with `CC1(C)Cc2nc(Cc3ccc(O)c(F)c3)c3[nH]c4ccccc4c3c2[C@@H](O)C1`
a: 233 to 234 °C

q: Repeat with `Cc1ccc(Cc2nc3c(c4c2[nH]c2ccccc24)C(=O)CC(C)(C)C3)cc1`
a: 182 to 184 °C

q: Repeat with CCC(=O)Nc1ccc(Cc2nc3c(c4c2[nH]c2ccccc24)C(O)CC(C)(C)C3)cc1 (stereo not drawn)
a: 165 to 168 °C

q: Repeat with CC(=O)Nc1ccc(Cc2nc3c(c4c2[nH]c2ccccc24)C(O)CCC3)cc1 (stereo not drawn)
a: 195 to 197 °C

###

Target under test: human PDE5 (Homo sapiens, UniProt O76074)
Test details: Inhibition of PDE5 activity (modified SPA test, human platelet lysate)
Measurement setup: PDE5-containing human platelet lysate, 0.5 μM cGMP substrate, 37° C.
Where a name gives a salt, the structure may show the parent alone.
Recorded metric: IC50 (nM)
Numeric answer only, unit nM assumed.

q: Query (compound): COc1ccc(Cc2nc3c(c4c2[nH]c2ccccc24)CCCC3)cc1 [Example 6, HCl salt] ; field requested: IC50
a: 12.6

q: Repeat with CC1(C)CC(=O)c2c(nc(Cc3cc(F)cc(F)c3)c3[nH]c4ccccc4c23)C1 [Example 22]
a: 15.5

q: Repeat with OC1CCCc2nc(Cc3ccccc3)c3[nH]c4ccccc4c3c21 (stereo not drawn) [Example 49]
a: 66.1
